tested on: SK-MEL-2; assay: Growth inhibition of human SK-MEL-2 cells assessed as cell growth at 10^-8 M incubated for 48 hrs by sulforhodamine B assay; format: functional; settings: SK-MEL-2, 48 h, read-out: Activity
Entries and their measured growth at 0.01 µM follow.

Solved cases below.
Simply: "c1ccc2[nH]c(-c3ccc(Nc4nc(N5CCCCC5)nc(N5CCOCC5)n4)cc3)nc2c1" , SK-MEL-2, growth at 0.01 µM = 97%

Simply: "Clc1ccc(-c2nc(Nc3ccc(-c4nc5ccccc5[nH]4)cc3)nc(N3CCOCC3)n2)cc1" , SK-MEL-2, growth at 0.01 µM = 99%

We next turn to a different compound, shown below.
Simply: "Fc1ccc(-c2nc(Nc3ccc(-c4nc5ccccc5[nH]4)cc3)nc(N3CCOCC3)n2)cc1" , SK-MEL-2, growth at 0.01 µM = 103%
